Target: HLA-A*2402 (human)
Test: iTopia off-rate
Decide using t1/2: a value greater than or equal to 0.6 is Yes, a smaller one is No.

> print(dat)
                               binder  category
1  YKALFKEIF [cdr2 422-430 YKALFKEIF]       Yes
2  SQSLLEEMF [cdr2 287-295 SQSLLEEMF]        No
3  SSLAGSDIV [cdr2 316-324 SSLAGSDIV]       Yes
4  QMLQSEHPF [cdr2 259-267 QMLQSEHPF]        No
5  ECLQTNIDH [cdr2 120-128 ECLQTNIDH]       Yes
6  TMLQAQLSL [cdr2 203-211 TMLQAQLSL]        No
7  VPDSLYVPF [cdr2 275-283 VPDSLYVPF]       Yes
